Let's look at some molecules and their measured pIC50.
- assay notes: Cytotoxicity against human HL60 cells assessed as reduction in cell survival after 46 hrs by MTT assay
- Type: functional, cell-based
- condition: HL-60, 46 h
Units for pIC50: none; it is -log10 of a concentration expressed in mol/L.

molecule: CN1N=C2c3ccccc3OC(c3ccccc3)C2C1c1ccc(Cl)cc1 (stereo unspecified)
pIC50: 5.13

molecule: Oc1cccc(C2NN=C3c4ccccc4OC(c4ccccc4)C32)c1 (stereo unspecified)
pIC50: 4.30

Specify measured pIC50 for COc1cccc(C2CN=NC23C(=O)c2ccccc2OC3c2ccccc2)c1 (stereo unspecified) .
4.13

Specify measured pIC50 for Cc1cccc(C2C3C(=NN2C)c2ccccc2OC3c2ccccc2)c1 (stereo unspecified) .
4.22

Specify measured pIC50 for CN1N=C2c3ccccc3OC(c3ccccc3)C2C1c1ccc(Br)cc1 (stereo unspecified) .
5.12

Specify measured pIC50 for O=C1/C(=C\c2ccccc2)C(c2ccccc2)Oc2ccccc21 (stereo unspecified) .
4.48

Specify measured pIC50 for CN1N=C2c3ccccc3OC(c3ccccc3)C2C1c1ccc(F)cc1 (stereo unspecified) .
4.01

Specify measured pIC50 for c1ccc(C2Oc3ccccc3C3=NNC(c4ccncc4)C32)cc1 (stereo unspecified) .
4.30

Specify measured pIC50 for CN1N=C2c3ccccc3OC(c3ccccc3)C2C1c1cccc(O)c1 (stereo unspecified) .
3.46
